tested on: BT-549; experiment: NCI tumour cell line growth inhibition, 48 h
Activity calls are given as the source filed them. No stated cut-off is given here; in the data, active = GI50 up to about 1.1 µM and inactive = higher.
I'd be grateful if you could share measured GI50 for these entries.

Output measured GI50 for this item: O=c1c2c3c(sc2nc2n1N=CN(c1ccccc1)C2)CCCC3
> 100 µM (inactive)

Output measured GI50 for this item: c1ccc(-c2cc(-c3ccncc3)cc(-c3ccncc3)n2)cc1
> 100 µM (inactive)

Output measured GI50 for this item: O=C1NC(O)c2ccccc2O1 (configuration not stated)
> 100 µM (inactive)

Output measured GI50 for this item: COc1cc2c(cc1OC)[C@@](C)(C(O)C(O)C(C)(C)O)NCC2 (some centres not stated)
> 100 µM (inactive)

Output measured GI50 for this item: Cc1cccc(-c2cc(O)c3ccc(C)nc3n2)c1
0.435 µM (active)

Output measured GI50 for this item: CCOC(=O)c1cc2c([nH]1)C(=O)CC1=C2CCN1Cc1ccccc1
18.1 µM (inactive)

Output measured GI50 for this item: CC(=O)OC(C)(C)/C=C/C(=O)[C@](C)(O)[C@H]1[C@H](O)C[C@@]2(C)[C@@H]3CC=C4[C@@H](C[C@H](O)C(=O)C4(C)C)[C@]3(C)C(=O)C[C@]12C
< 0.01 µM (active)

Output measured GI50 for this item: COC(=O)/C=C/[C@@H]1[C@H](C)N1S(=O)(=O)c1ccc(C)cc1 (some centres not stated)
> 100 µM (inactive)

Output measured GI50 for this item: Cc1c(Cl)c(C)c(Cl)c(O)c1Cl
24.3 µM (inactive)

Output measured GI50 for this item: O=C(/C=C/c1ccc(O)c(O)c1)OCC(OC(=O)/C=C/c1ccc(O)c(O)c1)C(=O)O (configuration not stated)
> 100 µM (inactive)

Output measured GI50 for this item: COc1ccc(C2=Nc3c(nc(SC)[nH]c3=O)NC(c3ccccc3)C2)cc1 (configuration not stated)
24.8 µM (inactive)

Output measured GI50 for this item: CN(C)c1ccc(/C=C2\N=C(N/N=C/c3ccccc3)NC2=O)cc1
> 100 µM (inactive)

Output measured GI50 for this item: CCOC(=O)c1ccc(/N=C/C=C(\Nc2ccc(C(=O)OCC)cc2)c2ccc3ccccc3c2)cc1
17 µM (inactive)

Output measured GI50 for this item: CC(=O)c1[nH]c(NCc2ccccc2)c(C(=S)Nc2ccccc2)c1N
23.5 µM (inactive)

Output measured GI50 for this item: CCOC(=O)C1(C#N)CC1
> 100 µM (inactive)

Output measured GI50 for this item: CCOC(=O)C1=C(N)N2C(=N[C@H]3CCCC[C@@H]32)N=C1
> 100 µM (inactive)

Output measured GI50 for this item: CO/N=C(\C(=O)Nc1cncs1)c1csc(NC(c2ccccc2)(c2ccccc2)c2ccccc2)n1
> 10 µM (inactive)

Output measured GI50 for this item: Cc1c(C)c2c(c(N)c1C#N)C(=O)N(Nc1ccccc1)C2=O
> 100 µM (inactive)

Output measured GI50 for this item: Nc1ccccc1-c1noc(=O)[nH]1
> 100 µM (inactive)

Output measured GI50 for this item: NS(=O)(=O)c1ccc(NC(=O)N/N=C/c2ccccc2[N+](=O)[O-])cc1
45.4 µM (inactive)

Output measured GI50 for this item: COc1ccc(/C=N/c2ccc(-c3nc4ccccc4[nH]3)cc2)cc1OC
89.1 µM (inactive)

Output measured GI50 for this item: NC(=S)N/N=C/C1NCCC2CCCCC21 (configuration not stated)
0.834 µM (active)
